- run-description: Displacement of [3H]colchicine from tubulin at 5 uM
measured-metric: inhibition (%)

Observe how each entry below is paired with its result.
Cc1ccccc1-c1ccc([C@@H]2NC(=O)c3cc([N+](=O)[O-])ccc3N2)cc1 :: 28
Cc1ccccc1-c1ccc(C2NC(=O)c3cc([N+](=O)[O-])ccc3N2)cc1 (racemic) :: 17

(A) Cc1ccccc1-c1ccc([C@H]2NC(=O)c3cc([N+](=O)[O-])ccc3N2)cc1
(B) COc1ccc(/C=C\c2cc(OC)c(OC)c(OC)c2)cc1O
Between the two listed entries A and B , which has its inhibition at the higher number? Please identify the chosen entry by its label.
B
(B: 99%, A: 2.1%)

The reported measurements were obtained from ChEMBL document CHEMBL1155830.
